Here the recorded melting point is given for each entry.

Check out these entries, answers already filled in.
Task: Need melting point, item O=C(O)CN1C(=O)C(NC(=O)[C@@H](S)Cc2ccccc2)CCCc2ccccc21 (some centres undefined)
Output: 107 to 111 °C

Task: Need melting point, item `O=C(c1ccccc1)N1C=CC(c2c(-c3ccc(F)cc3)nc3n2CCS3)C=C1`
Output: 188 to 189 °C

Task: Need melting point, item CCCCCCSCC(O)COc1cccc2oc(C(=O)O)cc(=O)c12 (centres undefined)
Output: 97 to 100 °C

Task: Need melting point, item `Clc1nc2cc(Cl)c(Cl)c(Cl)c2[nH]1`
Output: 243 to 244 °C

Task: Need melting point, item `CCCCc1nnc(SCc2ccc(OC)cc2)n1Cc1ccc(O)cc1`
Output: 130 to 131 °C

Task: Need melting point, item CCCCOC1c2ccccc2C(=O)N(CC2CC2)C1(/C=C/C(=O)OCC)CNC(=O)OC(C)(C)C (centres undefined)
Output: 166 to 167 °C

Task: Need melting point, item `CCCc1c(OCCCSc2ccc(CC(=O)O)c(Cl)c2Cl)ccc(C(C)=O)c1O`
Output: 119 to 122 °C

Task: Need melting point, item O=c1nc(-c2cccc(S(=O)CCc3ccccc3)n2)sc2ccccc12 (centres undefined)
Output: 164 to 166 °C

***
Task: Need melting point, item `CCN1C(=O)C(C)(C)C(=O)N(C)c2cc(CN(CCn3ccc4oc(C)cc4c3=O)Cc3cccnc3COC)ccc21`
Output: 127 to 129 °C

---

Here the recorded melting point is given for each entry.

Check out these entries, answers already filled in.
Task: Need melting point, item `CCn1c2ccccc2c2cc(N(Cc3ccccc3)Cc3ccccc3)ccc21`
Output: 123 to 125 °C

Task: Need melting point, item `CCOC(=O)c1cnc2c(c1NCCN(C)C)NC(=O)CN2`
Output: 183 to 185 °C

Task: Need melting point, item `CCOC(=O)C1=C(C)NC(C)=C(C(=O)OCC)C1c1ccccc1/C=C(\C)C(=O)OCC`
Output: 105 to 106 °C

Task: Need melting point, item `CC(=O)Nc1ccc(-c2nc3ccccc3o2)cc1`
Output: 214 to 215 °C

***
Task: Need melting point, item `CSC(NCCNC(=O)OC(C)(C)C)=C(C#N)C#N`
Output: 123 to 125 °C

Task: Need melting point, item `Cc1ccc(-c2ccc3c(c2)C=C(C(=O)Nc2ccc(C4=NCCN4)cc2)CCO3)cc1`
Output: 282 to 283 °C

Task: Need melting point, item `COc1ccc(/C=C/c2c(Cl)cccc2Cl)cc1OC1CCCC1`
Output: 47 to 49 °C

Task: Need melting point, item `CCCCCCCNC(=O)N(C)c1cccc(-c2ccc(CCC(=O)O)cn2)c1`
Output: 118 °C

Task: Need melting point, item CN1CCC(C2(O)c3ccccc3Sc3ccc(S(=O)(=O)C(F)(F)F)cc32)CC1 (stereo not given)
Output: 211 to 216 °C

Task: Need melting point, item CC(C#Cc1ccc(Oc2ccccc2)cc1)N(O)C(N)=O (stereo not given)
Output: 141 to 142 °C

---

Here the recorded melting point is given for each entry.

Task: Need melting point, item `CCc1nc(C(=O)c2cc(F)c(Cl)cc2Cl)c(C=O)n1C(CC)CC`
Output: 70 to 71 °C

Task: Need melting point, item `CCOC(=O)c1cc2nc(C)nc-2[nH]c1C(=O)OCC`
Output: 164 to 165 °C

Task: Need melting point, item `O=C(Oc1ccccc1)c1ccc(C(=O)Oc2ccccc2)c(C(=O)Oc2ccccc2)c1`
Output: 156 to 158 °C

Task: Need melting point, item `CC1(C)Cc2c(c(N3CCCC3)nc3sc4c(NCc5ccncc5)ncnc4c23)CO1`
Output: 228 to 229 °C

Task: Need melting point, item O=C1CCC(N2C(=O)c3ccc([N+](=O)[O-])cc3C2=O)C(=O)N1 (stereo not given)
Output: 228 to 230 °C

---

Observation Type: melting point

Task: Need melting point, item `CCCCc1nc2ccccc2n1Cc1ccc(-c2ccccc2CO)cc1`
Output: 162 to 163 °C

***
Task: Need melting point, item CC(=O)OC1CCC2(C)C(CCC3C4CCC(C(C)CC(=O)C(=O)N5CCOCC5)C4(C)CC(=O)C32)C1 (stereo not given)
Output: 122 to 123 °C

---

Here the recorded melting point is given for each entry.

Task: Need melting point, item CCNC(=O)NCc1ccc(/C=C/C(c2cc(Cl)cc(Cl)c2)C(F)(F)F)cc1Cl (stereo not given)
Output: 177 to 178 °C

Task: Need melting point, item `CNC(=O)c1cc(Oc2ccc(NC(=O)Nc3ccc4c(cnn4C)c3)c(F)c2)ccn1`
Output: 231 to 234 °C

Task: Need melting point, item `COc1ccc(C=C(C)[N+](=O)[O-])c(OC)c1OC`
Output: 57 to 58 °C

Task: Need melting point, item `BrCCCCCCCCn1nnc(-c2ccccc2)c1-c1ccccc1`
Output: 90 to 91 °C

Task: Need melting point, item `O=C(NCc1ccccn1)c1cc(N2CCN(Cc3ccc(F)cc3)C2=O)n[nH]1`
Output: 235 to 237 °C

# context switch: different molecule, same melting point
Task: Need melting point, item CCS(=O)(=O)N(CC(=O)Nc1ccncc1)C1CC(C)(C)Oc2ccc(F)cc21 (stereo not given)
Output: 195 °C

---

Here the recorded melting point is given for each entry.

Check out these entries, answers already filled in.
Task: Need melting point, item `O=c1ccc(S(=O)(=O)c2cc3cc(Cl)ccc3o2)n[nH]1`
Output: 246 to 247 °C

Task: Need melting point, item `CCOC(=O)C(=CNc1ccnc(-c2ccncc2)n1)C(=O)OCC`
Output: 143 to 145 °C

Task: Need melting point, item `CSc1nc(P(=O)(C2CCCCC2)C2CCCCC2)cc(P(=O)(C2CCCCC2)C2CCCCC2)n1`
Output: 197 to 198 °C

***
Task: Need melting point, item `CCOc1ccc2nc3cc(OC)c(=O)c(Cl)c-3sc2c1`
Output: 236 to 239 °C

Task: Need melting point, item `CCC(=O)N1CCC(NC(=O)Nc2ccc([N+](=O)[O-])cc2)CC1`
Output: 240 to 241 °C

---

Here the recorded melting point is given for each entry.

Task: Need melting point, item COC(=O)C1=C(N)NC(C)=C([N+](=O)[O-])C1c1ccccc1OCCCCCN1CCN(c2ccccc2OC)CC1 (centres undefined)
Output: 167 °C

Task: Need melting point, item `O=S(=O)(Nc1ccc2c(-c3ccccc3Cl)n[nH]c2c1)c1cccc(Cl)c1`
Output: 187 to 189 °C

Task: Need melting point, item `Cn1cnc2ccnc(Cl)c21`
Output: 62 to 65 °C

Task: Need melting point, item CC(SCc1cc2cc(Cl)ccc2n1S(=O)(=O)c1ccccc1)C(=O)O (centres undefined)
Output: 138 °C

Task: Need melting point, item CC1CCc2ccc(C#N)c3c(=O)c(C(=O)O)cn1c23 (centres undefined)
Output: > 300 °C

***
Task: Need melting point, item Cc1cc(-c2ccc(-c3ccc(OCC4CO4)cc3)cc2)ccc1OCC1CO1 (centres undefined)
Output: 180 °C

Task: Need melting point, item `CS(=O)(=O)c1ccc(-c2cnn(CC(=O)c3ccc(OC(F)(F)F)cc3)c(=O)c2-c2ccc(F)cc2)cc1`
Output: 160 to 161 °C

Task: Need melting point, item `COc1ccc(C)cc1NC(=O)Nc1ccc(N2CCN(C(=O)Nc3c(C)cccc3OC)CC2)cc1`
Output: 200 to 203 °C

Task: Need melting point, item CCOC(=O)C(C)(C)OC1(CCCNC(=O)c2cc(Cl)ccc2OC)C=CC(c2ccccc2)=CC1 (centres undefined)
Output: < 20 °C

---

Here the recorded melting point is given for each entry.

Task: Need melting point, item `O=C(O)CCCCc1cc2nc(Cl)ccc2n1S(=O)(=O)c1ccc2ncsc2c1`
Output: 169 °C

***
Task: Need melting point, item `CC(Nc1ccccc1O)=C1C(=O)OC(=O)C(C(=O)C=Cc2ccc(O)cc2)=C1O`
Output: 257 to 260 °C

Task: Need melting point, item `N#CCc1ccc(OCc2ccccc2)c2c1OCCO2`
Output: 95 °C

Task: Need melting point, item `COC(=O)CCc1ccc(N2CCN(c3ccc(C(=N)NC(=O)OC)cc3)C2=O)cc1`
Output: > 260 °C

Task: Need melting point, item `CN1CCc2nc3cc(Cl)ccc3c(NNc3ccccc3)c2C1`
Output: 175 to 178 °C

Task: Need melting point, item COc1ccc(C(c2ccc(OC)cc2)C2CN(C)CCC2=O)cc1 (stereo not given)
Output: 104 to 106 °C

Task: Need melting point, item `CC(C)c1nc(CCl)n(C)c1Sc1cc(Cl)cc(Cl)c1`
Output: 110 to 111 °C

Task: Need melting point, item COc1ccc2c(c1)C(c1ccccc1)NC(=O)N2CC1CC1 (stereo not given)
Output: 133 °C

Task: Need melting point, item `CON=Cc1ccc2c(c1)ncn2-c1cccc(-c2cccs2)c1`
Output: 184 to 185 °C
